target: HLA-B*2705 expressed on C1R-neo cells (human, UniProt P01889 25-362; P61769 21-119); assay: ECL cell binding, C1R-neo B*2705 cells, pH 6.0; separate day
property name: max RLU (RLU)
One number for each entry, in RLU.

• H4H2499N20 (antibody, V domains shown) VH: QVQLVESGGGLVKPGGSLRLSCAASGFTFSDYYMSWIRQAPGKGLEWVSYISTSGSTIYYPDSVKGRFTISRDNAKNSLNLQMNSLRAEDTAVYYCLLHHYYGHDHWGQGTTVTVSS VL: EIVLTQSPATLSLSPGERAPLSCRASQHVHHYLAWYQQKPGQPPRLLIYDASNRATGIPARFSGSGSGTDFTLTISSLEPEDFAVYYCQQRSNWPWTFGQGTKVEIK = 22700
• H4H2499N8 (antibody, V domains shown) VH: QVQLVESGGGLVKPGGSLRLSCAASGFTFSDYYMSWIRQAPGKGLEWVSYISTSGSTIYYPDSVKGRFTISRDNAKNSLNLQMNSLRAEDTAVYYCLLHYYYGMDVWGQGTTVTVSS VL: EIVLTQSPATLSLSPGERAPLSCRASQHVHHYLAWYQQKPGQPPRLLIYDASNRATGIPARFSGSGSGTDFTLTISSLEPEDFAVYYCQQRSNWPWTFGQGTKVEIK = 24900
• H4H2499N11 (antibody, V domains shown) VH: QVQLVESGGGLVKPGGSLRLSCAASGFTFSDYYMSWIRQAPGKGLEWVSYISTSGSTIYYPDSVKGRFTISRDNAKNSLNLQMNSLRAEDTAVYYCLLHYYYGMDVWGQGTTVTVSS VL: EIVLTQSPATLSLSPGERAPLSCRASQSVSSYLAWYQQKPGQPPRLLIYDASNRATGIPARFSGSGSGTDFTLTISSLEPEDFAVYYCQHRHNWPWHFGQGTKVEIK = 12000

Read the next record carefully.
Exercise: Would you kindly share the measured max RLU for H4H2499N3 (antibody, V domains shown) VH: QVQLVESGGGLVKPGGSLRLSCAASGFTFSDYYMSWIRQAPGKGLEWVSYISHSGSTIYYPDSVKGRFTISRDNAKNSLNLQMNSLRAEDTAVYYCLLHYYYGMDVWGQGTTVTVSS VL: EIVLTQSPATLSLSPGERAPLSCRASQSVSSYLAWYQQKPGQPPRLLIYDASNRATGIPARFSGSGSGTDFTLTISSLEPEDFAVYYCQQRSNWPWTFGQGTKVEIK ?
Key: 18900
